All figures here come from the nanobody polyreactivity screen of Harvey et al. (2022).

# Measurement notes: yeast display, Sf9 membrane polyspecificity reagent, FACS + sequencing; frameworks hold sequencing errors
Reported property: polyreactivity (PSR sort gate)

Below: 6 sequences and their reported polyreactivity (PSR sort gate).
1. QVQLVESGGGLVQAGGSLRLSCAASGITFDVNAMGWYRQAPGKERELVAAITAGGNTYYADSVKGRFTISRDNAKNTVYLQLNSLKPEVTAVYYCATQSYYGFYDYDYWGQGTQVTVSS: low polyreactivity
2. QVQLVESGGGLVQAGGSLRLSCAASGSTFGYYTMGWYRQAPGKERELVAAITWSGGSTYYADSVKGRFTISRDNAKNTVFLQMNSLKPEDTAVYYCAAEDYWTPFGYWGQGTQVTVSS: low polyreactivity
3. QVQLVESGGGLVQAGGSLRLSCAASGGTFSSNAMGWYRQAPGKERELVAAISGSGDRTYYADSVKGRFTISRDNAKNTVYLQMNSLKPEDTAVYYCAAEHETGAYYYWGQGTQVTVSS: high polyreactivity
4. QVQLEESGGGLVQAVGIIRLSCGASVSIFDAYAIGWYRKAPGKETELVASITYGGRTNYADSVEGRFTISRDNAKNTVYLQMNSLKPEDTAVYYCAAGGGYYYRYHRYPRGYWGQGTQVTVTS: high polyreactivity
5. QVQLVESGGCLVQAGGSLRLSCAPSGSTFIPNPMGWYRQEPGKERELVAAISRRGGSTNYADSVKGRFTISRDNAKNTVFLQMNSVKPEDTAVYYCAAVSPRRYRYDYWGQGPQVTVSS: low polyreactivity
6. QVQLVESGGGLVQAGGSLRLSCAASGGTFYGYAMGWYRQAPGKERELVAASNYRGGRTYYADSVKGRFTISRDNAKNTGYLQMNSLKPEDTAVYYCAATSYRLDGYDYWGQGTQVTVSS: high polyreactivity

For each listed entry, give its polyreactivity (PSR sort gate).
1. QVQLVESRGGLVQAGGSLRLSCAASGSIFRSNGMGWYRQPPGTERELVAAIRTSGGSTNYADSVKGRFTISRDNAKNTVSLQMNSLKPEDTAVYYCNTRDRGLGMMEYWGQGTQVTVSS
2. QVQLVESGGGLVQAGGSLRLSCAASGYIFNYAMGWYRQAPGKERQLVAAISRRGGSTYYADSVKGRFTISRDNAKNTVYLQMISLKPEDTAVYYCADRLPGYYGIGDYWGQGSQVTVSS

1. low polyreactivity
2. high polyreactivity

For each listed entry, give its polyreactivity (PSR sort gate).
1. QVQLVESGGGLVQAGGSLRLSCAASGNIFVLYAMGWYRQAPGKERELVASITSDGITYYADSVKGRFTISRDNAKNTVYLQMNSLKPEDTAVYYCAVDRSYRYLPRGDYWGQGTQVTVSS
2. QVQLVESGGGLVQAGGSLRLSCAASGSTFEYNAMGWYRQAPGKERELVASSTNYADSVKGRFTISRDNAKNTVYLQMNSLKPEDTAVYYCAKTYWYPYGYWGQGTQVTVSS
3. QVQLVESGGGLVQAGGSLRLSCAASGSIFSYNAMGWYRQAPGKERELVAAITWSGGSTYYADSVKGRFTISRDNAKNTVYLQMNSLKPEDTAVYDCAAKGGYSTVRPTYTKFNYWGLGTQVTVSS
4. QVQLVESGGGLVQAGGSLRLSCAASGFIFVTNAMGWYRQAPGKERELVAAINWSGGRTYYADSVKGRFTISRDNAKNTVYLQMNSLKPEDTAVYYCAADPYARLGEYGYWGQGTQVTVSS
5. QVQLVESGGGLVQAGGSLRITCAASGSIYKSNAMGWYRQAPGKEREFVAAITWSGGSTYYADSVKGRFTISRDNAKNTVDLKMNSLKPEDTAVCYCAATQYRSDGWRYDYWGQGTQVTVSS
6. QVQHVESGGGLVQAGGSLRLSCAASGDIFRPNAMGWYRQAPGKERELVAAITRSGGTTYYADSVKGRFTISRDYAKNTVYLQMNSLNPEDTAVYYCAARGLQYYRYDYWGQGTQVTVSS
7. QVQLVESGGGVVQAGGSLRISCAASGRTFGVYVMGWYRQAPGKERELVAAISSSGGRTYYADSVKGRFTISRDNAKNTFYLQMNSLKPEDTAVFYCNAVRRREERDGPPNQMDYWGQGTQVTVSS
8. QVQLVESGGGLVQAGGSHRLSCAASGRIFVGYTMGWYRQAPGKERELVAAITSGGSTYYADSVKGRFTISRDNAKNTVYLQMNSLNPEDTAVYYCNAAYQFDSYHLGGYGYEYWGQGTQVTVSS

1: low polyreactivity; 2: low polyreactivity; 3: high polyreactivity; 4: low polyreactivity; 5: high polyreactivity; 6: low polyreactivity; 7: high polyreactivity; 8: low polyreactivity

For each listed entry, give its polyreactivity (PSR sort gate).
1. QVQLVESGGGFVQAGGSLRLSCAASGLIFGRYGLGWYRQAPGKAREFVAAITQSGGATYYADSVKGRFTISRDNAKNTVYLQMNSLKPEDTAVYYCNAPIAYWRVHDKYGYWGQGTQLTVSS
2. QVQLVESGGGLVQAGGSLRLSCAASGFTFTTNAMGWYRQAPGKEREFVAAISRSGGSTDYADSVKGRFTISRDNAKNTVYLQMNSLKPEDTAVYYCNADPRLRQTRDYWGHGTQVTVSS
3. QVQLVESGGGLVQAGGSLRLSCAASGSTGVNTMGWYRQAPGKERQLVAAIRATGGSTYYADSVKGRFTISRENAKNTVYFQMNSLKPEDTAVYYCNAYRRSYRWYGDLGEYWGQGTQVTVSS

1. low polyreactivity
2. high polyreactivity
3. high polyreactivity

For each listed entry, give its polyreactivity (PSR sort gate).
1. QVQLVESGRGLVQAGGSLRLSCAASGSTFATYAMGWYRQAPGKERELVAVITRGGRTYYADSVKGRFTISRDNAKNTVYLQMNSLKPEDNAVYYCAAKAYTYYARIGFDYWGQGTQVTVSS
2. QVQLVESGGGLVQAGGSLRLSCAASGRTFLRYTMGWYRQAPGKERELVASITRGGSTYYADSVKGRFTISRDNAKNTVYLQMNSLKPEDTAVYYCAAGKALLSRYDYWGQGTQVTVSS

high polyreactivity
high polyreactivity

====

# Measurement notes: yeast display, Sf9 membrane polyspecificity reagent, FACS + sequencing; frameworks hold sequencing errors
Reported property: polyreactivity (PSR sort gate)

1) QVQLVESGGGLVQAGGSLRLSCAASGRTSYTYVMGWYRQAPGKERELVAAIRLSGGNTYYADPVKGRFTISRDNAKNTVYLQMNSLKPEDTAVYYCAAQYWRHRKAYGYWGQGTQVTVSS: high polyreactivity
2) QVQLVESGGGLVQAGGSLRLSCAASGFTFKRNAMGWYRQAPGKERELVAAISWSGSRTYADSVKGRFTISRDNAKNTVYLQMNSLKPEDTAVYYCAASPGRRRRPYASLIRYDYWGQGTQVTVSS: high polyreactivity

====

# Measurement notes: yeast display, Sf9 membrane polyspecificity reagent, FACS + sequencing; frameworks hold sequencing errors
Reported property: polyreactivity (PSR sort gate)

Below: 8 sequences and their reported polyreactivity (PSR sort gate).
1) QVQLVETGGGLVQAGGSLRLSCAPSGRILYGYAMGWYRQAPGKERELVASITWSGGSTYADSVKGRFTISRDNAKNTVYLQMNSLKPEDTAVYFCATRRGPKWQWLTYGYWGQGTQVTVSS: low polyreactivity
2) QVQLVESGGGLVQAGGSLRLSCAASGFNVRYYAMGWYRQAPGKERELVAAISSGGNTRYADSVKGRFTISRDNAKNTVYLQMNSLKPEDTAVYYCARRPGAWKYVYTGDYWGQGTQVTVSS: high polyreactivity
3) HVQLVDSGGGLVQAGGSLRLSCAASGYTFKYNTMGWYRQAPGKERDLVAAITRSGGSTYYADSVKGRFTISRDNAKNTVYLQMNSLKPEDTAVYYCAARAAYKQPVSFDYWGQGTQVTVSS: high polyreactivity
4) QVQLVESGGGLVQAGGSLRLSCAASGRTFYYNGMAWYRQAPGKERELVAAITSGGTTTYADSVKGLFTISRDNAKNSVYLQMNSVKPEETAVYYSNADYWAVNYDYCGQGTQVTVSS: low polyreactivity
5) QVQLVESGGGLVQAGGSLRLSCAAYGRTFWPNAMGWYRQAPGKERELVAAFSRRSGSTYYADSVKGRFTISRDNAKNTVYLQMNSLKPEDTAVYYCAAKYRAHGNHSWGQGTQVTVSS: high polyreactivity
6) QVQLVESGGGLVQAGGSLRLSCAASGFTFDKNAMGWYRQAPGKERELVAAITKSGGSTYYADSVKGRFTISRDNAKNTVYLQMNSLKPEETAVYYCNAPPWSRYYYDLLRHDYWGQGTQVTVSS: low polyreactivity
7) QLQHVESGGGLVQAGGSLRLSCAASGSTFYRNAMGWYRQAPGKDRELVAAISRGSRTYYADSVKGRFTISRDNAKNTVYLQMNSLKPEDTAVYYCAALYGSRSTYHMDDYWGQGTQVTVSS: high polyreactivity
8) QVQLVESGGGLVQAGGSLRLSCAASGRIFYTYAMGWYRPAPGKERELVAAITYRGGSTYYADSVKGRFTISRDNAKNTVYLQMNSLKPEDTAVYYCAGRPGRGPDSRWRYKYDYWGQGTQVTVSS: high polyreactivity

For each listed entry, give its polyreactivity (PSR sort gate).
1. QFHLVESGGGLVQAGGSLRLTCAASGRTFAYYAMGWYRQAPGKEREMVAGITRNGGSTYYADSVKGRFTISRDNAKNTVYLQMNSLKPEDTAVYYCAAGFTTRRGEYNYWGKGTQVTVSS
2. QVQLVESGGGLVQAGGSLRLSCAASGFIFAWYAMGWYRQAPGKERELVAAIDYSDGTTYYADSVKGRFTISRDNAKNTVYLQMNSLKPEDTAVYYCAAYNEFVYEDDYWGQGTQVTVSA
3. QGQLVESGGGLVQAGGSLRLSCAASGRIFPAYGMAWYRQAPGQERELVATIDNGGGTYYADSVKGRFTISRDNAKNTVYLQMNSLKPEDTAVYYCARDRHVRWGLKMDFWGQGTQVTVSS

["high polyreactivity", "low polyreactivity", "low polyreactivity"]
